experiment summary: Intrinsic clearance in rat liver microsomes
Type: ADME, Microsome
test readout: CLint scaled

Dear colleague, I am looking for the recorded CLint scaled of the following molecule: `O=C1N(CCN2Cc3ccccc3C2)CCN1c1cccc(Cl)c1`
36.9 mL/min/kg
